Target: P. falciparum apicoplast DNA polymerase (Pf-apPOL) (Plasmodium falciparum, UniProt Q8ILY1)
Sequence (Q8ILY1 entry or part of it): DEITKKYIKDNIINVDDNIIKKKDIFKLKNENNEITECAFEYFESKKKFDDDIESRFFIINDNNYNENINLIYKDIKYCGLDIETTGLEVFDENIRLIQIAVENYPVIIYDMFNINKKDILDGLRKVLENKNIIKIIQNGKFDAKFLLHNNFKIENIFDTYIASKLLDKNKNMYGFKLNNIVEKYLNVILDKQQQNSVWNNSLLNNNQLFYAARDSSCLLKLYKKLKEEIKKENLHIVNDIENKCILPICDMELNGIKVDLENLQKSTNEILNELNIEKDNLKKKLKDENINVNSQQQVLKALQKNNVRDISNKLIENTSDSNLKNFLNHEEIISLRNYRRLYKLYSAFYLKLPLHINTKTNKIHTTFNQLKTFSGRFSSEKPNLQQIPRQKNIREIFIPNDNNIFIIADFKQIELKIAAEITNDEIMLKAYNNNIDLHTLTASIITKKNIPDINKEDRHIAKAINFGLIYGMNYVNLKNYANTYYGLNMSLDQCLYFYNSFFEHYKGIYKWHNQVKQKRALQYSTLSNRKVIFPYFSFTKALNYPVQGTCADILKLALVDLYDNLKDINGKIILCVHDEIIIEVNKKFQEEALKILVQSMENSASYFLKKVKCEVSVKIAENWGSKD
Assay: Fluorescence-based high-throughput DNA polymerase assay (molecular beacon), primary screen and dose-response
Assay type: biochemical
Conditions: primary screen value by plate and well; 90 min, 10 µM
DNA Pol under 40 gets Met, anything at or over 40 gets Not met.

// below: answered molecules
>  <Molecule>
O=C(CSc1nc2ccccc2s1)Nc1ncc([N+](=O)[O-])s1 [KU0019667]

>  <Discrete label>
Not met

$$$$
>  <Molecule>
O=C1C(=Cc2ccncc2)Oc2c1ccc1c2CN(Cc2ccc3c(c2)OCO3)CO1 [KU0199357]

>  <Discrete label>
Met

$$$$
>  <Molecule>
O=C(CSc1nnc(-c2ccncc2)[nH]1)c1ccc(O)c(O)c1 [Molecule 89]

>  <Discrete label>
Not met

$$$$
>  <Molecule>
O=C(O)c1cccc(N2N=C(C(F)(F)F)/C(=C/c3ccc(-c4ccccc4[N+](=O)[O-])o3)C2=O)c1 [Molecule 100]

>  <Discrete label>
Not met

$$$$

Problem: For the molecule O=c1cc(-c2ccccc2Cl)oc2c(NS(=O)(=O)c3cc(Cl)cc(Cl)c3O)ccc(O)c12 [KU0104277] , is DNA Pol under 40?
Met

What do you get for CC(=O)Nc1cc(C(=O)NC(C)C)c2ccc(C)nc2c1 [KU0206312] ?
Met

Next entry: COc1ccc(C)cc1NC(=O)Cn1ccc2c(=O)[nH]ccc21 [Molecule 15, COc1ccc(cc1NC(=O)Cn1ccc2c1cc[nH]c2=O)C]
Not met

----------
Target: P. falciparum apicoplast DNA polymerase (Pf-apPOL) (Plasmodium falciparum, UniProt Q8ILY1)
Experiment: Fluorescence-based high-throughput DNA polymerase assay (molecular beacon), primary screen and dose-response
Type: biochemical
Conditions: DRC-1; read at 90'; concentration 40
Reported metric: % inhibition Apol 90' 40 (%)
The reply should contain only the number, in %.

See these solved cases before continuing.
>  <Molecule>
C#CC(C=CC)OC(=O)c1ccccc1C(=O)O (stereo not drawn)

>  <Readout units>
%

>  <% inhibition Apol 90' 40>
54.6934

$$$$
>  <Molecule>
Cc1cc2[nH]c(C(=O)Nc3ccc(F)cc3)c(CN3CCOCC3)c2s1

>  <Readout units>
%

>  <% inhibition Apol 90' 40>
56.5635

$$$$
>  <Molecule>
Cc1ccc(N2CCC(NC(=O)Cc3cccs3)C2=O)cc1C (stereo not drawn)

>  <Readout units>
%

>  <% inhibition Apol 90' 40>
53.5477

$$$$
>  <Molecule>
CC(=O)OCC1=C(C(=O)[O-])N2C(=O)[C@@H](NC(=O)Cc3cccs3)[C@H]2SC1.[Na+]

>  <Readout units>
%

>  <% inhibition Apol 90' 40>
36.8577

$$$$
>  <Molecule>
Cc1cccc(-c2noc(C(=O)NNC(=O)C(Cl)(Cl)Cl)n2)c1

>  <Readout units>
%

>  <% inhibition Apol 90' 40>
39.8547

$$$$

// returns reported % inhibition Apol 90' 40 for input `N#Cc1c(O)nc(N2CCCCC2)nc1-c1ccc2c(c1)OCO2`
57.8585

Entry `Cc1nc(C)c2c(n1)N(CC1CCCCC1)C(=O)CC2` please
54.1171

Consider next the molecule `CCCc1ccc(Oc2coc3cc(OC)ccc3c2=O)cc1` in the same way.
28.8567

Subsequent entry: `Nc1cc(Oc2ccc(O)c(N)c2)ccc1O`
59.758

Also `CC(=O)Nc1cc(C(=O)c2cccs2)nn(-c2ccc(Cl)cc2)c1=O` ?
45.4354

Same question, `COc1ccccc1CC(=O)N1CCc2c(nc3cc(-c4ccccc4Cl)[nH]n3c2=O)C1` this time
68

COc1ccc(C2CC(c3ccc(Cl)cc3Cl)Nc3nc(N)nn32)cc1OC (stereo not drawn) , same question.
58

----------
Target: P. falciparum apicoplast DNA polymerase (Pf-apPOL) (Plasmodium falciparum, UniProt Q8ILY1)
Experiment: Fluorescence-based high-throughput DNA polymerase assay (molecular beacon), primary screen and dose-response;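 for % inhibition apPOL 180': test concentration in µM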
Type: biochemical
Conditions: DRC-2; 180'; concentration 5
Reported metric: % inhibition apPOL 180' (%)
Write it as a number; the unit % goes unstated.

>  <Compound>
COc1cc(Cl)c(C)cc1NC(=O)Cn1ccc2c(=O)[nH]ccc21

>  <Reported metric>
% inhibition apPOL 180'

>  <Readout units>
%

>  <Numeric value>
6.65

$$$$
>  <Compound>
CC(=O)Nc1cc(C(=O)NC(C)C)c2ccc(C)nc2c1

>  <Reported metric>
% inhibition apPOL 180'

>  <Readout units>
%

>  <Numeric value>
5

$$$$
>  <Compound>
O=c1cc(-c2ccccc2Cl)oc2c(NS(=O)(=O)c3cc(Cl)cc(Cl)c3O)ccc(O)c12

>  <Reported metric>
% inhibition apPOL 180'

>  <Readout units>
%

>  <Numeric value>
-2.49

$$$$
>  <Compound>
O=C(Cc1cc(=O)[nH]c(SCc2ccccc2)n1)Nc1ccc2c(c1)OCO2

>  <Reported metric>
% inhibition apPOL 180'

>  <Readout units>
%

>  <Numeric value>
-9

$$$$
>  <Compound>
CCCCCCCCCCCCCCCCCC(=O)CCN(C)C

>  <Reported metric>
% inhibition apPOL 180'

>  <Readout units>
%

>  <Numeric value>
4

$$$$

GET /values?readout=% inhibition apPOL 180'&system=P. falciparum apicoplast DNA polymerase (Pf-apPOL) (Plasmodium falciparum, UniProt Q8ILY1)&item= `COc1ccc(S(=O)(=O)/N=C2\NC(=O)/C(=C3\C(=O)Nc4ccc([N+](=O)[O-])cc43)S2)cc1`
2.14

Further, for `CN(C)S(=O)(=O)Oc1ccc(-c2noc(-c3ccc(Oc4cc(Cl)cc(Cl)c4)o3)n2)cc1` ?
5.64

Field entry: `O=C(CSc1nc2ccccc2s1)Nc1ncc([N+](=O)[O-])s1`
-17

Could you do the same for `COc1cc(NC(=O)c2ccccc2)c(OC)cc1NC(=O)Cc1cccs1` , please?
13

Now try `CC(C)(C)c1cc(C(=O)C(C#N)=NNc2cccc(Cl)c2)no1` .
14

Can you handle `CCOc1cccc2cc(C(=O)Nc3nnc(-c4ccno4)o3)oc12` next?
5

Same question for Cl.NC(CO)C(=O)NNCc1ccc(O)c(O)c1O (centres unmarked) please.
32

Note, next up: `O=C(O)CCS(=O)(=O)c1ccc(-c2ccc(S(=O)(=O)CCC(=O)O)cc2)cc1`
-2.16

Would you kindly repeat that for `C=CC1=C(C)c2cc3[nH]c(cc4nc(cc5[nH]c(cc1n2)c(C)c5CCC(=O)O)C(CCC(=O)O)=C4C)c(C)c3C=C` ?
49

Please give the result for `O=C1c2ccccc2C(=O)c2c1oc1c3c(ccc21)OCN(C1CCCC1)C3` too.
23

Next entry: Cc1ccc(NC(=O)Cn2ccc3c(=O)[nH]ccc32)cc1F [Molecule 48, O=C(Cn1ccc2c1cc[nH]c2=O)Nc1ccc(c(c1)F)C]
-4

And the next one, `CCCc1ccc(Oc2coc3cc(OC)ccc3c2=O)cc1` ?
8

----------
Target: P. falciparum apicoplast DNA polymerase (Pf-apPOL) (Plasmodium falciparum, UniProt Q8ILY1)
Assay: Fluorescence-based high-throughput DNA polymerase assay (molecular beacon), primary screen and dose-response;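 for % inhibition apPOL 180': test concentration in µM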
Assay type: biochemical
Conditions: DRC-1; 180'; concentration 2.5
Reported metric: % inhibition apPOL 180' (%)
State the answer as a number, implicitly in %.

Item `NC(=O)c1cc[n+](CC2=C(C(=O)[O-])N3C(=O)[C@@H](NC(=O)[C@@H](c4ccccc4)S(=O)(=O)[O-])[C@H]3SC2)cc1.[Na+]` has what recorded % inhibition apPOL 180'?
-2.063

Next record, please: `COc1ccc(C(=O)N2CCc3c(nc4cc(-c5ccccc5Cl)[nH]n4c3=O)C2)cn1`
-5.33

Now this one: `O=c1cc(-c2ccccc2)oc2c(O)c(O)ccc12`
1.7844

----------
Parameter % inhibition apPOL 180': see the listing below.
Target: P. falciparum apicoplast DNA polymerase (Pf-apPOL) (Plasmodium falciparum)
Assay: Fluorescence-based high-throughput DNA polymerase assay (molecular beacon), primary screen and dose-response
Type: biochemical
Conditions: DRC-2; 180'; conc 20
Output spec: scalar in %, unitless text.

Past entries and their recorded results:
>  <Compound>
CC(C)CCNC(=O)c1cnn2c(O)cc(CSc3ccc(Cl)cc3)nc12

>  <Readout units>
%

>  <% inhibition apPOL 180'>
66

$$$$
>  <Compound>
CCOc1nc2cccc(C(=O)OC(C)OC(=O)OC3CCCCC3)c2n1Cc1ccc(-c2ccccc2-c2nnn[nH]2)cc1 (centres unmarked)

>  <Readout units>
%

>  <% inhibition apPOL 180'>
69

$$$$
>  <Compound>
COC(=O)c1sc(-c2ccc(C(C)(C)C)cc2)cc1NC(=O)CCC(=O)O

>  <Readout units>
%

>  <% inhibition apPOL 180'>
57

$$$$
>  <Compound>
Cc1cccc(NC(=O)Cn2ccc3c(=O)[nH]ccc32)c1C [Molecule 11, O=C(Cn1ccc2c1cc[nH]c2=O)Nc1cccc(c1C)C]

>  <Readout units>
%

>  <% inhibition apPOL 180'>
69

$$$$
>  <Compound>
Cc1ccc(N2NC(=O)/C(=C\c3ccc(O)c([N+](=O)[O-])c3)C2=O)cc1Cl

>  <Readout units>
%

>  <% inhibition apPOL 180'>
33

$$$$
>  <Compound>
O=C(O)c1ccc(COc2cc([N+](=O)[O-])cc3cccnc23)cc1

>  <Readout units>
%

>  <% inhibition apPOL 180'>
22

$$$$
>  <Compound>
Cc1ccccc1NC(=O)Cn1ccc2c(=O)[nH]ccc21 [Molecule 50, O=C(Cn1ccc2c1cc[nH]c2=O)Nc1ccc(cc1)C]

>  <Readout units>
%

>  <% inhibition apPOL 180'>
60

$$$$

Now for the compound whose % inhibition apPOL 180' we want.
Suppose we examine the compound `O=C1Nc2ccc(I)cc2C1=Cc1cc(Br)c(O)c(Br)c1` ; what % inhibition apPOL 180' value has been reported?
67
